- assay_notes: Agonist activity at AMPA receptor by FLIPR assay
- Type: functional
readout_kind: pEC50
In simple prose, pEC50 is minus the logarithm base ten of a concentration in moles per litre.

Inquiry: # lookup: pEC50 of CC(CNS(=O)(=O)C(C)C)c1ccc(-c2ccc(C#N)cc2)cc1 (configuration not stated)
Reply text: 6.54

---

- subject_of_test: Glutamate receptor 4 (Rattus norvegicus, UniProt P19493)
- Sequence (P19493 whole entry): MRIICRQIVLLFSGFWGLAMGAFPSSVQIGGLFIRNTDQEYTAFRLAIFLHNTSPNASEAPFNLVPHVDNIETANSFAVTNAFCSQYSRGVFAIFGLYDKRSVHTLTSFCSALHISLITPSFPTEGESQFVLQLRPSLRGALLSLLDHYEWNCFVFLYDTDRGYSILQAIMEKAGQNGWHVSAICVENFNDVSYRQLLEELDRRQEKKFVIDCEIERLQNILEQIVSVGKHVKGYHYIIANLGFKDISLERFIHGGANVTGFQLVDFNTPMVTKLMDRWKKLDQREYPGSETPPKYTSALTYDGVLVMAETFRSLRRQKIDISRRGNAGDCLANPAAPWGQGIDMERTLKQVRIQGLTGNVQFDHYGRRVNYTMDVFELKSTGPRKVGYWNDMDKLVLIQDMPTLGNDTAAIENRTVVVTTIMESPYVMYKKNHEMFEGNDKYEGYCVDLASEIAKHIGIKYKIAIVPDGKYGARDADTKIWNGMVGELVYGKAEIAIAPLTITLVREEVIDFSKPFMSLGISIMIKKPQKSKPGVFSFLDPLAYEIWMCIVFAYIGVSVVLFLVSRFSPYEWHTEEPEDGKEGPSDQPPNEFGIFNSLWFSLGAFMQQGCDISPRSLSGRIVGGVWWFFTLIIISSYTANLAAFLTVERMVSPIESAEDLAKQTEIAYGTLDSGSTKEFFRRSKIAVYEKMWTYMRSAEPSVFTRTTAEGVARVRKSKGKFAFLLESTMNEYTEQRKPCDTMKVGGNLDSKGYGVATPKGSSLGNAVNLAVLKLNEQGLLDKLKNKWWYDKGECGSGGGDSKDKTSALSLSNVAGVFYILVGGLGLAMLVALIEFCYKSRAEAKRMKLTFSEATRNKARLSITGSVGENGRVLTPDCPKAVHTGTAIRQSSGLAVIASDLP
- assay_notes: Inhibition of rat recombinant GluR4 in cells
readout_kind: EC50 (nM)
Give a bare numeral; the unit nM is implied.

Inquiry: # lookup: EC50 of `C[C@H](CNS(C)(=O)=O)c1ccc(-c2ccc([C@@H](C)CNS(C)(=O)=O)cc2)cc1`
Reply text: 870
